FYI, the data here is from the supplement of paper PMC10567573.

B1: KLHL14 (parent)
chain: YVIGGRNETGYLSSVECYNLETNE

variants of: B1; assay: protein stability index of a GFP-peptide fusion (GPS, HEK-293T) (PSI 1-6); higher = more stable; conditions: c terminus: a fixed tail appended;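 further: lentivirally expressed fusions sorted by FACS into six bins by GFP to DsRed ratio, PSI derived from sequencing read proportions per bin multiplied by bin number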
Measured Endpoint: protein stability index
Answers are plain numbers.

Example entries begin here.
YVIGGFNETGYLSSVECYNLETNE [R6F] = 1.5
YVIGGRNEIGYLSSVECYNLETNE [T9I] = 1.49
YIIGGRNETGYLSSVECYNLETNE [V2I] = 2.14

For each of the variants below, state protein stability index.
1. YVIGGRNETGYLSSVECYNLATNE [E21A]
2. YVIGGRNETGYLSSLECYNLETNE [V15L]
3. YVIGGRNETGYLSSVECYNPETNE [L20P]
4. YVIGGRNETGYLSQVECYNLETNE [S14Q]
5. YVIGGRNEAGYLSSVECYNLETNE [T9A]
6. YVIGGRNETGYLSSVECYNLETDE [N23D]

A.
1. 2.66
2. 1.9
3. 1.83
4. 2.5
5. 1.9
6. 2.75

For each of the variants below, state protein stability index.
1. YVIGGRNETMYLSSVECYNLETNE [G10M]
2. YVIGGRNETGYLSSVECYNIETNE [L20I]

A.
[1.68, 2.21]
